Target: human PHF19-Tudor (residues 37–95) (human, UniProt Q5T6S3 37-95)
Assay: NMR titration
Square brackets hold non-standard residues; d marks the D form. Ends that are not written are not given here. Lys(Me3) = C[N+](C)(C)CCCC[C@H](N)C(=O)O
TEST READOUT: Kd (µM)
Write down the numeric answer in µM and omit the unit.

Need Kd, item GV[Lys(Me3)]KPHRY [short H3K36me3 peptide (34-GV-Kme3-KPHRY-41; called the 7-mer histone H3_(35–41) in the results)] 44

Just for reference, paper PMC3926938 is where these values come from.
